Listed here are molecules together with their documented Efficacy.
TARGET SYSTEM: Glucose-dependent insulinotropic receptor (Homo sapiens)
Sequence (whole entry): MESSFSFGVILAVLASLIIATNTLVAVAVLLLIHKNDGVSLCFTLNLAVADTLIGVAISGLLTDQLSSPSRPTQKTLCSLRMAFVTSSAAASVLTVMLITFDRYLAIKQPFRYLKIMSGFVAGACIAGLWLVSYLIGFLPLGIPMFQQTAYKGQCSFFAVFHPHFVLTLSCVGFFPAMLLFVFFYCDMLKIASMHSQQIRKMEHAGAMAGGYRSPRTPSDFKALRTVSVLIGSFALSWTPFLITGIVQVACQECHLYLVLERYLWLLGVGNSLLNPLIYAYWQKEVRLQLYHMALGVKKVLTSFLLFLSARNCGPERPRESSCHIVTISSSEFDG
METHOD NOTES: […] of human GPR119 activity by homogeneous time resolved fluorescence cyclase (cAMP) assay relative to AR231453
Format: functional
A number alone suffices; assume %.

STRUCTURE AS SMILES: Cc1nc(S(C)(=O)=O)ccc1Oc1ncnc(OC2CCN(C(=O)c3noc(C(C)(C)F)n3)CC2)c1F
Efficacy, %: 69
//
STRUCTURE AS SMILES: Cc1nc(S(C)(=O)=O)ccc1Oc1ncnc(OC2CCN(C(=O)O[C@@H](C)CF)CC2)c1F
Efficacy, %: 72

Turning now to a further record.
Query :: Find Efficacy for Cc1nc(S(C)(=O)=O)ccc1Oc1ncnc(OC2CCN(C(=O)OC(C)(C)C#N)CC2)c1F on Glucose-dependent insulinotropic receptor (Homo sapiens) and write it down.
Result :: 90
